Below: a set of entries, each annotated with reported pIC50.
target: human TACE (Homo sapiens (Human), UniProt P78536); settings: read-out: TACE potency IC50
Sequence (P78536 whole entry, looked up, change not shown): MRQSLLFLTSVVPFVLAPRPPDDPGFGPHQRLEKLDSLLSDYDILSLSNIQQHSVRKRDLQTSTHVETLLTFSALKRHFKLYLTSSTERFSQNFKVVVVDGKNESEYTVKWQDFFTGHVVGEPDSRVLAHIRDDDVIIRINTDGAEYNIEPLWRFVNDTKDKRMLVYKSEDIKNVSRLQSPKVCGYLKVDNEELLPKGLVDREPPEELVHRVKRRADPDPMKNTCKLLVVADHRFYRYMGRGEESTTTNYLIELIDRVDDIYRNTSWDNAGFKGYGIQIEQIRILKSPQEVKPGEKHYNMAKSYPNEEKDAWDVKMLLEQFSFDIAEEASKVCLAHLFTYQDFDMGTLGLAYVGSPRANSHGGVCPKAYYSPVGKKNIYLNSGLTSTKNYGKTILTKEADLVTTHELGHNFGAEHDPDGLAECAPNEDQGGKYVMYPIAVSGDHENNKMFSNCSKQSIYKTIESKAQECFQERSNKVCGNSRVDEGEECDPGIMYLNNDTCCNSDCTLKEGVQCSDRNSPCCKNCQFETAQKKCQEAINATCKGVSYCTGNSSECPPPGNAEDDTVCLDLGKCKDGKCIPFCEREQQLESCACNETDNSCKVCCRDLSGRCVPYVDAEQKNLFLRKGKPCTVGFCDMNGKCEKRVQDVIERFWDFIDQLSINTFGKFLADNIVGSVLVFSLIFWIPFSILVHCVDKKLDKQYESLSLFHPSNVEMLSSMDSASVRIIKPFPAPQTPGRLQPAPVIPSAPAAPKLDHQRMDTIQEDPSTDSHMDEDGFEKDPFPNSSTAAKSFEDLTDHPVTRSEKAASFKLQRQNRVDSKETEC
pIC50: −log10 of the molar value.

1) C[C@H]1CN(C(=O)CCC2(C3CC3)NC(=O)NC2=O)CCN1c1cc(Cl)cc(Cl)n1 (stereo partly shown)    < 5.40

[in] Any idea what pIC50 was measured for CN(C)CC1(CCC(=O)N2CCN(c3cccc(Cl)c3)CC2)NC(=O)NC1=O (stereo not shown) ?
[out] < 5.40

[in] Any idea what pIC50 was measured for CC(CC1(C2CNC2)NC(=O)NC1=O)C(=O)N1CCN(c2ccc(F)c(F)c2)CC1 (stereo not shown) ?
[out] < 4.70

[in] Any idea what pIC50 was measured for CC(CC1(C2CNC2)NC(=O)NC1=O)C(=O)N1CCN(c2ccc(F)c(F)c2)[C@@H](C)C1 (stereo partly shown) ?
[out] < 4.71

[in] Any idea what pIC50 was measured for Cc1ccc(F)cc1N1CCN(C(=O)CCC2(C)NC(=O)NC2=O)CC1 (stereo not shown) ?
[out] < 5.44

[in] Any idea what pIC50 was measured for C[C@H]1CN(C(=O)CCC2(C3CC3)NC(=O)NC2=O)CCN1c1ccc(F)c(-c2cn[nH]c2)c1 (stereo partly shown) ?
[out] < 5.40

[in] Any idea what pIC50 was measured for CC1(CC(COCc2ccccc2)C(=O)N2CCN(c3cc(Cl)cc(Cl)c3)CC2)NC(=O)NC1=O (stereo not shown) ?
[out] < 4.97

[in] Any idea what pIC50 was measured for Cc1cc(Cl)ccc1N1CCN(C(=O)CCC2(C)NC(=O)NC2=O)CC1 (stereo not shown) ?
[out] < 5.40
